PROCEDURE_TEXT: qHTS Assay for Lipid Storage Modulators in Drosophila S3 Cells;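 further: cells counted by Cell Tracker Red CMTPX staining in the red channel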
CONDITION_CONTEXT: BODIPY lipid droplet fluorescence, 18-24 h, cells fed with added oleic acid; measured here: cell count max response
Out of some 320,000 compounds screened, about 2,100 (0.66%) were called active. Not shown: some 53% with an inconclusive outcome. What follows is part of a selection rich in actives, with near analogues and random picks from the rest.
# key: entry, value: cell number change
MEASURE: cell number change

[[record]]
compound = "O=C(NCc1cccnc1)C1CCCN(Cc2cnn(-c3ccccc3)c2-n2cccc2)C1 (centres undefined)"
obs_value = "-3.38%"

[[record]]
compound = "O=C(c1ccccc1)N1CCC(CC2CC(c3cccc(Br)c3)=NO2)(C(=O)NCC2CCCCC2)CC1 (centres undefined)"
obs_value = "21.3%"

[[record]]
compound = "CN1CCN(Cc2nc(N)nc(Nc3ccc4c(c3)OCCO4)n2)CC1"
obs_value = "-0.153%"

[[record]]
compound = "CCc1cc(Br)ccc1NC(=S)NCCc1ccccc1"
obs_value = "-12.4%"

[[record]]
compound = "CC(=O)c1c2c3c(cccc3n(C)c1=O)C(=O)c1ccccc1-2"
obs_value = "-3.04%"

[[record]]
compound = "Cc1ccc(S(=O)(=O)CNC(=O)c2ccccc2)cc1"
obs_value = "10%"

[[record]]
compound = "COc1ccc(CCNC(=O)COC(=O)c2cnc(C)cn2)cc1OC"
obs_value = "5.11%"

[[record]]
compound = "O=S1(=O)N=C(Oc2cccc3ccccc23)c2ccccc21"
obs_value = "3.24%"

[[record]]
compound = "Cc1ccc2c(COC(=O)c3ccccc3Cl)cc(=O)oc2c1"
obs_value = "0.403%"

[[record]]
compound = "O=C(C1COc2ccccc2O1)N1CCN(c2ccccc2O)CC1 (centres undefined)"
obs_value = "-2.02%"

[[record]]
compound = "Cc1cccc(NC(=O)C2C(c3ccccc3)C2(Cl)Cl)c1C (centres undefined)"
obs_value = "10.7%"

[[record]]
compound = "Cc1ccc2c(COC(=O)c3ccccc3OC(F)F)cc(=O)oc2c1"
obs_value = "26.6%"

[[record]]
compound = "O=C(CCCc1ccccc1)NCCc1ccccc1"
obs_value = "1.1%"

[[record]]
compound = "CCCCCCCNC(=O)C1(CC2CC(c3cccc(Br)c3)=NO2)CCN(C(=O)c2cc(OCC)c(OCC)c(OCC)c2)CC1 (centres undefined)"
obs_value = "-10.9%"

[[record]]
compound = "COc1ccc(Cn2nnc3c(=O)[nH]c(C4CCN(S(=O)(=O)c5ccc(C)cc5)CC4)nc32)cc1"
obs_value = "-52.1%"

[[record]]
compound = "Cc1ccc(Nc2nc(N)nc(CN3CCN(C)CC3)n2)cc1C"
obs_value = "7.98%"

[[record]]
compound = "O=C(Nc1ccccc1F)C(=O)c1cn(CC(=O)N2CCCCC2)c2ccccc12"
obs_value = "-5.77%"

[[record]]
compound = "Cc1ccc(S(=O)(=O)NCCC(=O)NCCCSc2ccccc2)cc1"
obs_value = "-14.6%"

[[record]]
compound = "O=C(c1ccco1)N1CCCC(c2nc3c(nnn3Cc3ccccc3)c(=O)[nH]2)C1 (centres undefined)"
obs_value = "1.8%"

[[record]]
compound = "O=C(Nc1cccc(Cl)c1)Nc1ccon1"
obs_value = "-26.2%"

[[record]]
compound = "O=C(C1COc2ccccc2O1)N1CCCC1 (centres undefined)"
obs_value = "0.347%"

[[record]]
compound = "O=c1[nH]c(C2CCN(S(=O)(=O)c3ccccc3)CC2)nc2c1nnn2Cc1cccc(Cl)c1"
obs_value = "26.3%"

[[record]]
compound = "O=C(NC1CC1)c1cc(-c2ccccn2)nc2ccccc12"
obs_value = "-1.09%"

[[record]]
compound = "Fc1ccc(N/N=C(/c2ccccc2)c2ccccn2)cc1"
obs_value = "9.54%"

[[record]]
compound = "CCOC(=O)CSc1nc(=O)n2ccccc2n1"
obs_value = "-9.97%"

[[record]]
compound = "CCOC(=O)Nc1cc2c(C)cc(=O)oc2cc1C"
obs_value = "12.9%"

[[record]]
compound = "Clc1ccc(-c2nnc(Sc3nc4ccccc4o3)c3ccccc23)cc1"
obs_value = "-12.5%"

[[record]]
compound = "O=S(=O)(Nc1ccc(Br)cc1)c1cccc(NC(=S)NCCN2CCOCC2)c1"
obs_value = "13%"

[[record]]
compound = "O=c1[nH]c(C2CCCN(S(=O)(=O)c3cccc(F)c3)C2)nc2c1nnn2Cc1ccccc1 (centres undefined)"
obs_value = "10.8%"

[[record]]
compound = "Cc1ccc(Nc2nc(N)nc(CN3CCN(C)CC3)n2)cc1"
obs_value = "-12%"

[[record]]
compound = "COc1ccc(COC(=O)C2CC(=O)N(Cc3ccc(C)cc3)C2)cc1 (centres undefined)"
obs_value = "-16.1%"

[[record]]
compound = "COc1ccc(C(C(=O)NCCC(C)C)N(CCO)C(=O)c2snc(C(N)=O)c2N)cc1 (centres undefined)"
obs_value = "-7.09%"

[[record]]
compound = "Cc1ccc(-c2nnc(Sc3nc4ccccc4o3)c3ccccc23)cc1"
obs_value = "-15.3%"

[[record]]
compound = "O=c1c(Cl)c2oc3ccccc3nc-2c2ccccc12"
obs_value = "13.2%"

[[record]]
compound = "O=C(c1ccccc1Cl)N1CCC(c2nc3c(nnn3Cc3ccco3)c(=O)[nH]2)CC1"
obs_value = "-9.84%"

[[record]]
compound = "O=c1[nH]c(C2CCCN(S(=O)(=O)c3ccccc3)C2)nc2c1nnn2Cc1cccc(Cl)c1 (centres undefined)"
obs_value = "7.14%"

[[record]]
compound = "CCN(CC)CCCN(C(=O)Cn1nnc(-c2ccc(OC)c(OC)c2)n1)C(C(=O)NC(C)(C)C)c1ccc(F)cc1 (centres undefined)"
obs_value = "-0.835%"

[[record]]
compound = "O=C(Nc1ccc(Cl)cc1)Nc1ccon1"
obs_value = "28.2%"

[[record]]
compound = "CCOC(=O)c1cnc(NCc2ccccc2)nc1C"
obs_value = "-8.98%"

[[record]]
compound = "CCOC(=O)C(C(=O)OCC)c1c([N+](=O)[O-])c(=O)n2c3c(cccc13)CCC2"
obs_value = "0.163%"

[[record]]
compound = "CN1CCN(NC(=O)c2cc(-c3ccccn3)nc3ccccc23)CC1"
obs_value = "28.4%"

[[record]]
compound = "Fc1ccc(CNn2cnnc2SCc2ccc(F)cc2)cc1"
obs_value = "9.34%"

[[record]]
compound = "COc1cccc2c1OC1(C)CC2NC(=O)N1c1cccc(C(=O)N2CCN(c3ccccc3)CC2)c1 (centres undefined)"
obs_value = "3.44%"

[[record]]
compound = "COCCCNC(=O)CCNS(=O)(=O)c1ccc(C)cc1"
obs_value = "9.83%"


Data credit: PubChem BioAssay AID2685
